The following compounds are shown together with reported half-life values.
assay.method.text: Half life in Wistar rat at 10 mg/kg, po and 3 mg/kg, iv
Type: ADME, organism-based
particulars: in vivo
Hey, just the number and the unit after it is fine.

Sample records with half-life:
{"compound": "COc1ccc2c(Nc3cn(C)cn3)nc(NC(C)c3ncc(F)cn3)nc2c1 (racemic)", "reading": "58.8 min"}
{"compound": "CC(Nc1nc(Nc2cn(C)cn2)c2cccnc2n1)c1ncc(F)cn1 (racemic)", "reading": "55.2 min"}

Asked: Give the reported half-life for this compound. C[C@H](Nc1nc(Nc2cn(C)cn2)c2cc[nH]c2n1)c1ncc(F)cn1
Given back: 96 min

Asked: Give the reported half-life for this compound. C[C@H](Nc1nc(Nc2cn(C)cn2)c2cnn(C)c2n1)c1ncc(F)cn1
Given back: 78 min

Asked: Give the reported half-life for this compound. Cc1csc2c(Nc3cn(C)cn3)nc(N[C@@H](C)c3ncc(F)cn3)nc12
Given back: 38.4 min

====

target.under.test: UniProtKB Q62137
Sequence (Q62137 whole entry): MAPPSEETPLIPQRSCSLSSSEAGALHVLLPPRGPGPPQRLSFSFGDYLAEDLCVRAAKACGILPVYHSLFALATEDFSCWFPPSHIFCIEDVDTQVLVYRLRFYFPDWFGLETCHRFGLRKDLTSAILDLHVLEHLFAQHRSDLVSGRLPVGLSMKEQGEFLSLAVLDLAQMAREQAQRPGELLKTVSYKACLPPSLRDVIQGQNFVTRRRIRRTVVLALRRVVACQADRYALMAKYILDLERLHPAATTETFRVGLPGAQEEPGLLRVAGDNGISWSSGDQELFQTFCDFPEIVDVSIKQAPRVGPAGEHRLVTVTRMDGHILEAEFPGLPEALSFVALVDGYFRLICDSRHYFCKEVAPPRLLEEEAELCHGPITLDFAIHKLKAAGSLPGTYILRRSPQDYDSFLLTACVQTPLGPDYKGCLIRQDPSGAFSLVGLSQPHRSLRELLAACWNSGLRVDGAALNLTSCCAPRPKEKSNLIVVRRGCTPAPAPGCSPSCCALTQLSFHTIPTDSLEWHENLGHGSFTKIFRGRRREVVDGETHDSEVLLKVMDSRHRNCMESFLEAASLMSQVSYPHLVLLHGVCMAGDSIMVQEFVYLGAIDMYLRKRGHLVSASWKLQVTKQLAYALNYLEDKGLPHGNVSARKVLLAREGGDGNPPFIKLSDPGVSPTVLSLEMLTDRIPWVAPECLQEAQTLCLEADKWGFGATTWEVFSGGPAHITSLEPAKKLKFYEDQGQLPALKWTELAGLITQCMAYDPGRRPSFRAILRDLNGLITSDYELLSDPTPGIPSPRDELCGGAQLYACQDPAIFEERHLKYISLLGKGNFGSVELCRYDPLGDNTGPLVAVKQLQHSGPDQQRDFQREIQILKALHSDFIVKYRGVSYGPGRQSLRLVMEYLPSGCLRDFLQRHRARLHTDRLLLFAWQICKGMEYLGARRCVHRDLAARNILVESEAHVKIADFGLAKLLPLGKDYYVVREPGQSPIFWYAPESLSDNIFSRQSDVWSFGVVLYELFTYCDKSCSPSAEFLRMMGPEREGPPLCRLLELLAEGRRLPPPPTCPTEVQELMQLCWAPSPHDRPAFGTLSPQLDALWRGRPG
assay.method.text: Inhibition of Jak3 in mouse BA/F3 cells expressing TEL-Jak3 assessed as inhibition of STAT5 phosphorylation by Western blotting analysis
measured.metric: pIC50
Scale note: pIC50 = -log10(concentration in M).

Asked: Give the reported pIC50 for this compound. C[C@H](Nc1nc(Nc2cn(C)cn2)c2cc[nH]c2n1)c1ncc(F)cn1
Given back: 5.70
